Tested on: HL-60(TB) leukemia
protocol.summary: NCI tumour cell line growth inhibition, 48 h
experimental.endpoint: TGI (µM)

molecule	bound.sign	recorded.value
CC(O)CC(O)(C(F)(F)F)C(F)(F)F (configuration not stated)	>	10
O=C(CNCc1ccccc1)Oc1c(Cl)c(Cl)c(Cl)c(Cl)c1Cl	=	52.4
O=S1(=O)OCCOS(=O)(=O)C1Cl	>	100
Cc1c2ccncc2c(C)c2c1[nH]c1ccccc12	=	6.78
C/C(CCn1[nH]c(=O)ccc1=O)=N\OCCCc1ccccc1	>	100
C[C@]12CC[C@@H]3c4ccc(O)c([N+](=O)[O-])c4CC[C@H]3[C@@H]1CC[C@@H]2NS(=O)(=O)c1cccc(Br)c1	=	6.04
c1csc(-c2c3ccc(=[N+]4CCCCC4)cc-3oc3cc(N4CCCCC4)ccc23)c1	=	0.547
O=C(NCc1ccc(S(=O)(=O)c2cc(F)cc(F)c2)cc1)c1ccc2nccn2c1	>	100
OCCNCCOc1ccc(/C(=C(/Cl)c2ccccc2)c2ccccc2)cc1	=	4.52
Cc1ncc([N+](=O)[O-])n1CCNS(=O)(=O)CCCn1ncnc1[N+](=O)[O-]	>	100
C=CCn1c2c(sc1=S)C(S)N=CN2 (configuration not stated)	>	100
O=C(O)CC(NC(=O)/C(=C/c1ccccc1O)NC(=O)c1ccccc1)C(=O)O (configuration not stated)	=	76.5
O/C(=C\c1nc2ccccc2nc1NC12CC3CC(CC(C3)C1)C2)c1ccc(Br)cc1	>	10
O=C(c1ccco1)C1CC(c2c(O)ccc3ccccc23)=NN1 (configuration not stated)	=	53.8
O=C(CCCN1CCC2(CC1)C(=NC1CCCCC1)NC(=O)N2c1ccccc1)c1ccc(F)cc1	=	57.4
Nc1ccccc1SC1CC(=O)N(c2ccc(Cl)c(Cl)c2)C1=O (configuration not stated)	>	100
CCOC(=O)/C(=C/c1cccc(C#N)c1)N(CC)CC	>	100
COc1ccc2c(c1)C(C)Cc1c(ncnc1-n1cnc3cc(C)ccc31)N2C (configuration not stated)	=	0.433
COc1cc(C(=O)C/C(CCC(=O)Nc2ccc(Cl)cc2Cl)=N/NC(=O)C(=O)NN)ccc1O	>	100
Nc1nc(Nc2ccc(Cl)cc2)sc1C(=O)c1cccs1	>	100
Cc1cn2c(C)csc2c1P(=O)(OC(C)C)OC(C)C	>	100
COc1cc(C2C(C(=O)Nc3cc(F)c(F)cc3F)=C(C)NC(C)=C2C(=O)Nc2cc(F)c(F)cc2F)ccc1O	=	40.7

###

System: IGROV1 ovarian
protocol.summary: NCI tumour cell line growth inhibition, 48 h; in the data active means GI50 below about 0.43 µM; inactive means the rest
Labels: active, inactive

molecule	answer.label
O=C(N/N=C/c1ccc([N+](=O)[O-])o1)c1ccc(O)cc1	inactive
NC(=S)N/N=C/c1cc(-c2cccc(N)c2)ccn1	inactive
COc1ccc2c(c1)C(C)Cc1c(ncnc1-n1cnc3cc(C)ccc31)N2C (stereo not given)	active
CC[C@@]1(O)C(=O)OCc2c1cc1n(c2=O)Cc2c-1nc1cc(F)c(C)c3c1c2[C@@H](N)CC3	active
CN1CCN(c2ccc(Nc3ncc4cc(C#N)c(=O)n(C5CCCC5)c4n3)cc2)CC1	inactive

###

Tested on: M14 melanoma
protocol.summary: NCI tumour cell line growth inhibition, 48 h
experimental.endpoint: TGI

molecule	recorded.value
COC(=O)C1(Cc2ccc3c(c2)CCC3)Cc2cc3c(cc2C1)CCC3	> 100 µM
N.N.NCCCCCCCCCN.O=C([O-])CC(=O)[O-].O=C([O-])CC(=O)[O-].[Pt+4].[Pt+4]	> 100 µM
Nc1ccccc1SC1CC(=O)N(c2ccc(Cl)c(Cl)c2)C1=O (centres undefined)	> 100 µM
C[C@H]1CCC/C=C/[C@@H]2C[C@H](O)C[C@H]2[C@H](O)[C@@H](SCC(O)CO)CC(=O)O1 (some centres undefined)	> 100 µM
c1ccc(-c2cnc(-c3ccc(-c4ncc(-c5ccccc5)o4)cc3)o2)cc1	> 100 µM
CC[C@@]1(O)C(=O)OCc2c1cc1n(c2=O)Cc2c-1nc1cc(F)c(C)c3c1c2[C@@H](N)CC3	0.111 µM
CCCCN(CCCC)C(=C(C(Cl)=C(Cl)Cl)[N+](=O)[O-])N(CCCC)CCCC	> 100 µM
O=C(CCCN1CCC2(CC1)C(=NC1CCCCC1)NC(=O)N2c1ccccc1)c1ccc(F)cc1	32.8 µM
CCCCCCCCCCCCOC1C(C(CC(=O)NCCN2CCCC2)NS(=O)(=O)c2cc(Cl)cc(Cl)c2)OC2OC(C)(C)OC21 (centres undefined)	3.45 µM
